Source: patent US8877707B2

System: HCV genotype 1b replicon in Huh 7 cells
measurement notes: HCV replicon assay (1b_Huh-Luc/Neo-ET cell line, luciferase readout)
Format: cell-based
condition info: Hepatitis C virus, Huh-7; HCV 1b replicon; read-out: Inhibition of HCV genotype 1b
pEC50: −log10 of the molar value.
assay endpoint: pEC50

molecule smiles	result
COC(=O)N[C@@H](C(=O)N1CCC[C@H]1CNC(=O)c1cnc2cc(-c3ccc(-c4cnc([C@@H]5CCCN5C(=O)[C@H](NC(=O)OC)c5ccccc5)[nH]4)cc3)ccc2c1)c1ccccc1	> 9.00
COC(=O)N[C@H](C(=O)N1CCC[C@H]1c1ncc(-c2ccc3nc(-c4ccc(-c5cnc([C@@H]6CCCN6C(=O)[C@H](NC(=O)OC)c6ccccc6)[nH]5)c(F)c4)ccc3c2)[nH]1)C1CCCC1	> 9.00
COC(=O)N[C@H](C(=O)N1CCC[C@H]1c1ncc(-c2ccc3cc(-c4ccc(-c5cnc([C@@H]6CCCN6C(=O)[C@H](NC(=O)OC)c6ccccc6)[nH]5)nn4)ccc3c2)[nH]1)C(C)C	> 9.00
COC(=O)N[C@H](C(=O)N1CCC[C@H]1c1nc2ccc(-c3ccc4cc(-c5cnc([C@@H]6CCCN6C(=O)[C@@H](NC(=O)OC)[C@@H](C)OC)[nH]5)ccc4c3)cc2[nH]1)C(C)C	> 9.00
COC(=O)N[C@H](C(=O)N1CCC[C@H]1c1ncc(-c2ccc3nc(-c4ccc(-c5cnc([C@@H]6CN(C(=O)OC)CCN6C(=O)[C@@H](NC(=O)OC)C(C)C)[nH]5)cc4)ccc3c2)[nH]1)C(C)C	> 9.00
COC(=O)N[C@H](C(=O)N1CCC[C@H]1C(=O)NCc1ccc(-c2ccc3cc(-c4cnc([C@@H]5CCCN5C(=O)[C@@H](NC(=O)OC)C(C)C)[nH]4)ccc3c2)cc1)C(C)C	6.00 to 8.00
